molecular target: dopamine D2 receptors (Rattus norvegicus, UniProt P61169); construct: from tissue; host or cells: rat brain homogenate; experiment: Non-σ competition binding assay, [3H](-)-sulpiride; conditions: rat brain homogenates
Sequence (P61169 whole entry): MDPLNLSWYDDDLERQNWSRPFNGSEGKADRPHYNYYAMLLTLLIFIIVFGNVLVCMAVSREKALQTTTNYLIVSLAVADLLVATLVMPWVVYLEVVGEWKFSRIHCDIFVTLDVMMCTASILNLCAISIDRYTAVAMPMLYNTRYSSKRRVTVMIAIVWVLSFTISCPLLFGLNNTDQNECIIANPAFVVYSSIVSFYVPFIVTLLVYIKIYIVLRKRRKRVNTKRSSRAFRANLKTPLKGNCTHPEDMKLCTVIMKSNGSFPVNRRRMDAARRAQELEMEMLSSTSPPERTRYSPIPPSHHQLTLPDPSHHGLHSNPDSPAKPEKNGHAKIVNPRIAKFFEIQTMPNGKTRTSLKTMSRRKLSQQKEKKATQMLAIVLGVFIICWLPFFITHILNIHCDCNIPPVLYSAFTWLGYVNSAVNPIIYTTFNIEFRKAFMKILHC
pKi: −log10 of the molar value.
Readout name: pKi

INSERT INTO results (compound, measured_result) VALUES
  ('S=c1sc2ccccc2n1CCCCN1CCN(C2CCCCC2)CC1 [CM156]', 5.98);

----------
biological target: NMDA receptors; assay: Non-σ competition binding assay, [3H]TCP; conditions: rat brain homogenates
Readout name: Ki

INSERT INTO measurements (compound, measured_result) VALUES
  ('S=c1sc2ccccc2n1CCCCN1CCN(C2CCCCC2)CC1 [CM156]', '> 10 µM');
